experiment: Plasma pharmacokinetics of intravenous PMB in critically ill patients (UPLC-MS/MS; noncompartmental and two-compartment analysis); format: in vivo, human; conditions: human, plasma, iv, 50 mg, Table 2, 27 enrolled patients; iv 100 mg loading, 50 mg q12h; mean; read-out: Css,max
Where a SMILES comes first, the peptide text is derived from it. Bridges are numbered along the chain shown (N, C = ends). [ ]: non-standard residue; d: D form. The star is where a group is joined. X1 = CC[C@H](C)CCCCC(=O)*; Dab = NCC[C@H](N)C(=O)O
readout.type: Cmax

compound	result
CC[C@H](C)CCCCC(=O)N[C@@H](CCN)C(=O)N[C@H](C(=O)N[C@@H](CCN)C(=O)N[C@H]1CCNC(=O)[C@H]([C@@H](C)O)NC(=O)[C@H](CCN)NC(=O)[C@H](CCN)NC(=O)[C@H](CC(C)C)NC(=O)[C@@H](Cc2ccccc2)NC(=O)[C@H](CCN)NC1=O)[C@@H](C)O [PMB, polymyxin B] (X1-[Dab]T[Dab][Dab][Dab][dF]L[Dab][Dab]T; lactam 4-C)	8300 ng/mL

Source: paper PMC12030314
